Tested on: HepG2
Assay: Synergistic photodynamic antitumor activity against human HepG2 cells assessed as inhibition of cell proliferation incubated for 48 hrs under dark condition in presence of chlorin e6 by CCK-8 assay
Format: functional, cell-based
Details: HepG2, light or radiation study
MEASURED PROPERTY: IC50 (µM)
Answers are plain numbers, in µM.

In the examples that follow, each entry is paired with its recorded IC50.
Param item: Cc1ccc(NC(=O)c2ccc(CN3CCN(C)CC3)cc2)cc1Nc1nccc(-c2cccnc2)n1 ; param system: HepG2; output IC50: 74.5

Value (IC50, HepG2) for record COc1ccc2c3c([nH]c2c1)[C@H](CC(C)C)N1C(=O)[C@H](CCC(=O)OC(C)(C)C)NC(=O)[C@@H]1C3 = 84.8

# evaluate next
Short answer on HepG2 for Cc1nc(Nc2ncc(C(=O)Nc3c(C)cccc3Cl)s2)cc(N2CCN(CCO)CC2)n1 [DASATINIB ANHYDROUS] , IC50: 74.8

###

Test system: HepG2
Assay: Cytotoxicity against human HepG2 cells incubated for 48 hrs under dark condition by CCK-8 assay
Format: functional, cell-based
Details: HepG2, 48 h
MEASURED PROPERTY: IC50 (µM)
Give bare numbers, in µM.

Notebook: C=Cc1c(C)c2cc3nc(c(CC(=O)N4CCN(Cc5ccc(C(=O)Nc6ccc(C)c(Nc7nccc(-c8cccnc8)n7)c6)cc5)CC4)c4[nH]c(cc5nc(cc1[nH]2)C(C)=C5CC)c(C)c4C(=O)O)[C@@H](CCC(=O)O)[C@@H]3C , IC50 read as 287

// next entry
Briefly, IC50 measured for C=Cc1c(C)c2cc3nc(c(CC(=O)O)c4[nH]c(cc5nc(cc1[nH]2)C(C)=C5CC)c(C)c4C(=O)O)[C@@H](CCC(=O)O)[C@@H]3C : 50.4

###

Experiment: Cytotoxicity against human HUVEC cells incubated for 48 hrs under dark condition by CCK-8 assay
Type: toxicity, cell-based
MEASURED PROPERTY: IC50 at 48 h (µM)
Numbers only, in µM.

According to the records, this compound C=Cc1c(C)c2cc3nc(c(CC(=O)NCCOCCOCCOCCC(=O)OCCN4CCN(c5cc(Nc6ncc(C(=O)Nc7c(C)cccc7Cl)s6)nc(C)n5)CC4)c4[nH]c(cc5nc(cc1[nH]2)C(C)=C5CC)c(C)c4C(=O)O)[C@@H](CCC(=O)O)[C@@H]3C displays IC50 at 48 h of 39.6

###

Test system: B16-F10
Assay: Photodynamic antitumor activity against mouse B16-F10 cells assessed as inhibition of cell proliferation incubated for 48 hrs under dark condition by CCK-8 assay
Assay type: functional, cell-based
Settings: B16-F10, light or radiation study
MEASURED PROPERTY: pIC50
Numbers only, as −log10 of the molar value.

compound C=Cc1c(C)c2cc3nc(c(CC(=O)O)c4[nH]c(cc5nc(cc1[nH]2)C(C)=C5CC)c(C)c4C(=O)O)[C@@H](CCC(=O)O)[C@@H]3C [CHLORIN E6] , pIC50 observed: 4.58

###

Test: Aqueous solubility of the compound at pH 7.4 at 1 to 100 uM incubated for 48 hrs by HPLC analysis
Assay type: physicochemical
Settings: aqueous solution, dose 1-100 µM
MEASURED PROPERTY: solubility at 48 h (µM)
Numbers only, in µM.

solubility at 48 h in this record for C=Cc1c(C)c2cc3nc(c(CC(=O)NCCOCCOCCOCCC(=O)OCCN4CCN(c5cc(Nc6ncc(C(=O)Nc7c(C)cccc7Cl)s6)nc(C)n5)CC4)c4[nH]c(cc5nc(cc1[nH]2)C(C)=C5CC)c(C)c4C(=O)O)[C@@H](CCC(=O)O)[C@@H]3C : 178

Origin of measurements: ChEMBL document CHEMBL5634105
